# Test system: 201T
# TEST_DETAILS: relative viability (nuclei count vs DMSO), 5 days (fraction); higher = more cells survive
# DETAILS: first compound 0.04 µM
PROPERTY_LABEL: relative viability
Just the number, please, no unit after it.

Would you please look over these solved cases?
O=C(O)c1ccc(-c2c[nH]c3ncc(-c4ccccc4)cc23)cc1C1CCCC1 + CC1(C)CCC(c2ccc(Cl)cc2)=C(CN2CCN(c3ccc(C(=O)NS(=O)(=O)c4ccc(N[C@H](CCN5CCOCC5)CSc5ccccc5)c(S(=O)(=O)C(F)(F)F)c4)cc3)CC2)C1 [Navitoclax] (partner 0.5 µM); 1.23
O=C(O)c1ccc(-c2c[nH]c3ncc(-c4ccccc4)cc23)cc1C1CCCC1 + Cc1nc(NC(=O)N2CCC[C@H]2C(N)=O)sc1-c1ccnc(C(C)(C)C(F)(F)F)c1 [Alpelisib] (partner 2 µM); 1.01
O=C(O)c1ccc(-c2c[nH]c3ncc(-c4ccccc4)cc23)cc1C1CCCC1 + CC(=O)c1c(C)c2cnc(Nc3ccc(N4CCNCC4)cn3)nc2n(C2CCCC2)c1=O [Palbociclib] (partner 0.5 µM); 0.353

Data request, read-out relative viability, for O=C(O)c1ccc(-c2c[nH]c3ncc(-c4ccccc4)cc23)cc1C1CCCC1 + COc1cccc2cc(-c3nc([C@H]4CC[C@H](C(=O)O)CC4)n4ncnc(N)c34)[nH]c12 [OSI-027] (partner 0.5 µM)
0.693

---

# Test system: ChaGo-K-1
# TEST_DETAILS: relative viability (nuclei count vs DMSO), 5 days (fraction); higher = more cells survive
# DETAILS: first compound 0.05 µM
PROPERTY_LABEL: relative viability

Would you please look over these solved cases?
CC1(C)CCC(c2ccc(Cl)cc2)=C(CN2CCN(c3ccc(C(=O)NS(=O)(=O)c4ccc(N[C@H](CCN5CCOCC5)CSc5ccccc5)c(S(=O)(=O)C(F)(F)F)c4)cc3)CC2)C1 [Navitoclax] + C[C@@H](Oc1cc(-c2cnn(C3CCNCC3)c2)cnc1N)c1c(Cl)ccc(F)c1Cl [Crizotinib] (partner 1 µM); 0.601
CC1(C)CCC(c2ccc(Cl)cc2)=C(CN2CCN(c3ccc(C(=O)NS(=O)(=O)c4ccc(N[C@H](CCN5CCOCC5)CSc5ccccc5)c(S(=O)(=O)C(F)(F)F)c4)cc3)CC2)C1 [Navitoclax] + CC(=O)c1c(C)c2cnc(Nc3ccc(N4CCNCC4)cn3)nc2n(C2CCCC2)c1=O [Palbociclib] (partner 0.5 µM); 0.492
CC1(C)CCC(c2ccc(Cl)cc2)=C(CN2CCN(c3ccc(C(=O)NS(=O)(=O)c4ccc(N[C@H](CCN5CCOCC5)CSc5ccccc5)c(S(=O)(=O)C(F)(F)F)c4)cc3)CC2)C1 [Navitoclax] + NC(=O)Nc1cc(-c2cccc(F)c2)sc1C(=O)N[C@H]1CCCNC1 [AZD7762] (partner 0.2 µM); 0.655

Kindly consider the entry below.
Data request, read-out relative viability, for CC1(C)CCC(c2ccc(Cl)cc2)=C(CN2CCN(c3ccc(C(=O)NS(=O)(=O)c4ccc(N[C@H](CCN5CCOCC5)CSc5ccccc5)c(S(=O)(=O)C(F)(F)F)c4)cc3)CC2)C1 [Navitoclax] + CCNC(=O)c1noc(-c2cc(C(C)C)c(O)cc2O)c1-c1ccc(CN2CCOCC2)cc1 [Luminespib] (partner 0.01 µM)
0.306

---

# System: HOP-62
# TEST_DETAILS: relative viability (nuclei count vs DMSO), 5 days (fraction); higher = more cells survive
# DETAILS: first compound 0.08 µM
Here, each record is paired with measured relative viability data.
Just the number, please, no unit after it.

C=C1C(=O)O[C@@H](CCCCCCCC)[C@@H]1C(=O)O [C-75] + CCNC(=O)c1noc(-c2cc(C(C)C)c(O)cc2O)c1-c1ccc(CN2CCOCC2)cc1 [Luminespib] (partner 0.01 µM); 0.858

Quick check: relative viability on HOP-62, item C=C1C(=O)O[C@@H](CCCCCCCC)[C@@H]1C(=O)O [C-75] + C[C@@H](Oc1cc(-c2cnn(C3CCNCC3)c2)cnc1N)c1c(Cl)ccc(F)c1Cl [Crizotinib] (partner 1 µM) ?
0.99

Quick check: relative viability on HOP-62, item Oc1nc(-c2ccc(C(F)(F)F)cc2)nc2c1CSCC2 [XAV939] + CC(=O)c1c(C)c2cnc(Nc3ccc(N4CCNCC4)cn3)nc2n(C2CCCC2)c1=O [Palbociclib] (partner 0.5 µM) ?
0.467

---

# Test system: ChaGo-K-1
# TEST_DETAILS: relative viability (nuclei count vs DMSO), 5 days (fraction); higher = more cells survive
# DETAILS: first compound 0.05 µM
Here, each record is paired with measured relative viability data.

Would you please look over these solved cases?
CC1(C)CCC(c2ccc(Cl)cc2)=C(CN2CCN(c3ccc(C(=O)NS(=O)(=O)c4ccc(N[C@H](CCN5CCOCC5)CSc5ccccc5)c(S(=O)(=O)C(F)(F)F)c4)cc3)CC2)C1 [Navitoclax] + Nc1ncn([C@H]2C[C@H](O)[C@@H](CO)O2)c(=O)n1 [Decitabine] (partner 2 µM); 0.392
CC1(C)CCC(c2ccc(Cl)cc2)=C(CN2CCN(c3ccc(C(=O)NS(=O)(=O)c4ccc(N[C@H](CCN5CCOCC5)CSc5ccccc5)c(S(=O)(=O)C(F)(F)F)c4)cc3)CC2)C1 [Navitoclax] + Nc1nc2[nH]cc(CCc3ccc(C(=O)N[C@@H](CCC(=O)O)C(=O)O)cc3)c2c(=O)[nH]1 [Pemetrexed] (partner 0.2 µM); 0.25

Kindly consider the entry below.
Data request, read-out relative viability, for CC1(C)CCC(c2ccc(Cl)cc2)=C(CN2CCN(c3ccc(C(=O)NS(=O)(=O)c4ccc(N[C@H](CCN5CCOCC5)CSc5ccccc5)c(S(=O)(=O)C(F)(F)F)c4)cc3)CC2)C1 [Navitoclax] + CS(=O)(=O)N1CCN(Cc2cc3nc(-c4cccc5[nH]ncc45)nc(N4CCOCC4)c3s2)CC1 [Pictilisib] (partner 1 µM)
0.648

---

# Tested on: NCI-H1395
# TEST_DETAILS: relative viability (nuclei count vs DMSO), 5 days (fraction); higher = more cells survive
# DETAILS: first compound 0.1581 µM
PROPERTY_LABEL: relative viability
Just the number, please, no unit after it.

Would you please look over these solved cases?
CC1(C)CCC(c2ccc(Cl)cc2)=C(CN2CCN(c3ccc(C(=O)NS(=O)(=O)c4ccc(N[C@H](CCN5CCOCC5)CSc5ccccc5)c(S(=O)(=O)C(F)(F)F)c4)cc3)CC2)C1 [Navitoclax] + O=C(c1cc(Cc2n[nH]c(=O)c3ccccc23)ccc1F)N1CCN(C(=O)C2CC2)CC1 [Olaparib] (partner 8 µM); 0.428
CC1(C)CCC(c2ccc(Cl)cc2)=C(CN2CCN(c3ccc(C(=O)NS(=O)(=O)c4ccc(N[C@H](CCN5CCOCC5)CSc5ccccc5)c(S(=O)(=O)C(F)(F)F)c4)cc3)CC2)C1 [Navitoclax] + CC(=O)c1c(C)c2cnc(Nc3ccc(N4CCNCC4)cn3)nc2n(C2CCCC2)c1=O [Palbociclib] (partner 0.5 µM); 0.653

Kindly consider the entry below.
Data request, read-out relative viability, for CC1(C)CCC(c2ccc(Cl)cc2)=C(CN2CCN(c3ccc(C(=O)NS(=O)(=O)c4ccc(N[C@H](CCN5CCOCC5)CSc5ccccc5)c(S(=O)(=O)C(F)(F)F)c4)cc3)CC2)C1 [Navitoclax] + CCNC(=O)c1noc(-c2cc(C(C)C)c(O)cc2O)c1-c1ccc(CN2CCOCC2)cc1 [Luminespib] (partner 0.01 µM)
0.577

---

Here, each record is paired with measured relative viability data.
# System: NCI-H596
# TEST_DETAILS: relative viability (nuclei count vs DMSO), 5 days (fraction); higher = more cells survive
# DETAILS: first compound 0.05 µM
Just the number, please, no unit after it.

CC1(C)CCC(c2ccc(Cl)cc2)=C(CN2CCN(c3ccc(C(=O)NS(=O)(=O)c4ccc(N[C@H](CCN5CCOCC5)CSc5ccccc5)c(S(=O)(=O)C(F)(F)F)c4)cc3)CC2)C1 [Navitoclax] + O=C(c1cc(Cc2n[nH]c(=O)c3ccccc23)ccc1F)N1CCN(C(=O)C2CC2)CC1 [Olaparib] (partner 8 µM); 0.533
CC1(C)CCC(c2ccc(Cl)cc2)=C(CN2CCN(c3ccc(C(=O)NS(=O)(=O)c4ccc(N[C@H](CCN5CCOCC5)CSc5ccccc5)c(S(=O)(=O)C(F)(F)F)c4)cc3)CC2)C1 [Navitoclax] + Nc1ncn([C@H]2C[C@H](O)[C@@H](CO)O2)c(=O)n1 [Decitabine] (partner 2 µM); 0.786
CC1(C)CCC(c2ccc(Cl)cc2)=C(CN2CCN(c3ccc(C(=O)NS(=O)(=O)c4ccc(N[C@H](CCN5CCOCC5)CSc5ccccc5)c(S(=O)(=O)C(F)(F)F)c4)cc3)CC2)C1 [Navitoclax] + C[C@@H](Oc1cc(-c2cnn(C3CCNCC3)c2)cnc1N)c1c(Cl)ccc(F)c1Cl [Crizotinib] (partner 1 µM); 0.802

Kindly consider the entry below.
Data request, read-out relative viability, for CC1(C)CCC(c2ccc(Cl)cc2)=C(CN2CCN(c3ccc(C(=O)NS(=O)(=O)c4ccc(N[C@H](CCN5CCOCC5)CSc5ccccc5)c(S(=O)(=O)C(F)(F)F)c4)cc3)CC2)C1 [Navitoclax] + CS(=O)(=O)CCNCc1ccc(-c2ccc3ncnc(Nc4ccc(OCc5cccc(F)c5)c(Cl)c4)c3c2)o1 [Lapatinib] (partner 2 µM)
0.955

Cited source for all entries: the supplement of paper PMC10307832
